# assay: MTT viability, IEC6
# Type: cell-based
# reported_conditions: rat, IEC-6 small intestine epithelial cells, 1000 µM (IC50 exceeded 1000 µM), read-out: viability ± standard deviation at 1000 µM
viability at 24 h, 1000 µM listing for selected molecules.
Form entry: value (%) — number only.

Completed entries (count: 4):
CC(=O)CCC=C(C)CCC(C)CCC=C(C)C (centres unmarked) [Compound 10] : 78
CC(C)=CCCC(C)CC(C)C(C)=CC=O (centres unmarked) [Compound 23, 3,4,6,10-Tetramethylundeca-2,9-dienal] : 82
CC(=O)OCC=C(C)C(C)CC(C)CCC=C(C)C (centres unmarked) [Compound 35] : 71
C=CC(C)(O)CC/C=C(\C)CCC=C(C)C (centres unmarked) [Nerolidol (2), nerolidol, reference compound] : 76

Could you now consider this next molecule?
Exercise: Requested field: viability at 24 h, 1000 µM. Item: CC(C)=CCCC(C)C(C)=CCCC(C)=CCO (centres unmarked) [Compound 24]
Solution: 85
